Source of measurements: patent US20240158446A1

Molecular target: GDP-bound KRAS wild-type protein (Homo sapiens)
Experiment: Binding to KRAS by surface plasmon resonance (SPR), Single Cycle Kinetics
Settings: SPR Single Cycle Kinetics, GDP-bound KRAS wild-type protein, 1:1 binding model; read-out: KRAS KD
Where a SMILES comes first, the peptide text is derived from it. Bridges are numbered along the chain shown (N, C = ends). [ ]: non-standard residue; d: D form. hPhe(3,5-F2-4-CF3) = N[C@@H](CCc1cc(F)c(C(F)(F)F)c(F)c1)C(=O)O; NPrPhe(4-CF3) = CCCN[C@@H](Cc1ccc(C(F)(F)F)cc1)C(=O)O; NMeGly(cPent) = CN[C@H](C(=O)O)C1CCCC1; NMeD = CN[C@@H](CC(=O)O)C(=O)O; NMeL = CN[C@@H](CC(C)C)C(=O)O; αMeS = C[C@](N)(CO)C(=O)O; Sar = CNCC(=O)O
pKd reference
For clarity, pKd is expressed as the negative log10 of concentration in mol/L.

# count of solved cases: 2
[
  {
    "compound": "CC[C@H](C)[C@@H]1NC(=O)[C@H](CC(C)C)N(C)C(=O)C[C@@H](C(=O)N2CCOCC2)N(C)C(=O)[C@H](C2CCCC2)N(C)C(=O)C2(CCCC2)NC(=O)[C@@H]2[C@@H](O)CCN2C(=O)[C@H](CCc2cc(F)c(C(F)(F)F)c(F)c2)NC(=O)CN(C)C(=O)[C@H](Cc2ccc(C(F)(F)F)cc2)N2CCCCC[C@@H](C2=O)N(C)C(=O)CN(C)C1=O [PP0662]",
    "pKd": 8.51
  },
  {
    "compound": "CCCN1C(=O)CN(C)C(=O)CN(C)C(=O)[C@H]([C@@H](C)CC)NC(=O)[C@H](CC(C)C)N(C)C(=O)C[C@@H](C(=O)N(C)C)N(C)C(=O)[C@H](C2CCCC2)N(C)C(=O)[C@](C)(COC)NC(=O)[C@@H]2CCCN2C(=O)[C@H](CCc2cc(F)c(C(F)(F)F)c(F)c2)NC(=O)CN(C)C(=O)[C@@H]1Cc1ccc(C(F)(F)F)cc1 [PP0741] ([NMeL]I[Sar][Sar][NPrPhe(4-CF3)][Sar][hPhe(3,5-F2-4-CF3)]P[αMeS](Me)[NMeGly(cPent)][NMeD]-NMe2; lactam N-11)",
    "pKd": 9.55
  }
]

We now examine a further compound.
[ask] What pKd appears in the records for this compound with GDP-bound KRAS wild-type protein (Homo sapiens)? CC[C@H](C)[C@@H]1NC(=O)[C@H](CC(C)C)N(C)C(=O)C[C@@H](C(=O)N2CCOCC2)N(C)C(=O)[C@H](C2CCCC2)N(C)C(=O)C2(CCCC2)NC(=O)[C@@H]2C[C@H](O)CN2C(=O)[C@H](CCc2cc(F)c(C(F)(F)F)c(F)c2)NC(=O)CN(C)C(=O)[C@H](Cc2ccc(C(F)(F)F)cc2)N2CCCC[C@@H](C2=O)N(C)C(=O)CN(C)C1=O [PP0556]
[reply] 10.62

* * *

Target: GDP-bound KRAS wild-type protein (Homo sapiens, UniProt P01116)
Sequence (P01116 whole entry): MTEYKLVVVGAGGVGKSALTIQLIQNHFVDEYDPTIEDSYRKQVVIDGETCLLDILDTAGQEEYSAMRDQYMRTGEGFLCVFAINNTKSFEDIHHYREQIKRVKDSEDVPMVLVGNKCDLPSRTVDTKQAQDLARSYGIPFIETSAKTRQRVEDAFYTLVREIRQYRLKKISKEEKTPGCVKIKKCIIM
Assay: Binding to KRAS by surface plasmon resonance (SPR), Single Cycle Kinetics
Settings: SPR Single Cycle Kinetics, GDP-bound KRAS wild-type protein, 1:1 binding model; read-out: KRAS KD
Where a SMILES comes first, the peptide text is derived from it. Bridges are numbered along the chain shown (N, C = ends). [ ]: non-standard residue; d: D form. The star is where a group is joined. hPhe(3,5-F2-4-CF3) = N[C@@H](CCc1cc(F)c(C(F)(F)F)c(F)c1)C(=O)O; hPhe(3-Cl-4-CF3) = N[C@@H](CCc1ccc(C(F)(F)F)c(Cl)c1)C(=O)O; NPrPhe(4-CF3) = CCCN[C@@H](Cc1ccc(C(F)(F)F)cc1)C(=O)O; NMeGly(cPent) = CN[C@H](C(=O)O)C1CCCC1; NMeD = CN[C@@H](CC(=O)O)C(=O)O; NMeL = CN[C@@H](CC(C)C)C(=O)O; Morpholide = C1CN(*)CCO1; Ac5c = NC1(C(=O)O)CCCC1; Sar = CNCC(=O)O
measured.attribute: pKd
For clarity, pKd is expressed as the negative log10 of concentration in mol/L.

[
  {
    "compound": "CCCN1C(=O)CN(C)C(=O)CN(C)C(=O)[C@H]([C@@H](C)CC)NC(=O)[C@H](CC(C)C)N(C)C(=O)C[C@@H](C(=O)N2CCOCC2)N(C)C(=O)[C@H](C2CCCC2)N(C)C(=O)C2(CCCC2)NC(=O)CN(C)C(=O)[C@H](CCc2ccc(C(F)(F)F)c(Cl)c2)NC(=O)CN(C)C(=O)[C@@H]1Cc1ccc(C(F)(F)F)cc1 [PP0266] ([NMeL]I[Sar][Sar][NPrPhe(4-CF3)][Sar][hPhe(3-Cl-4-CF3)][Sar][Ac5c][NMeGly(cPent)][NMeD]-Morpholide; lactam N-11)",
    "pKd": 9.70
  }
]

[ask] Find the recorded pKd belonging to CCCN1C(=O)CN(C)C(=O)CN(C)C(=O)[C@H]([C@@H](C)CC)NC(=O)[C@H](CC(C)C)N(C)C(=O)C[C@@H](C(=O)N(C)C)N(C)C(=O)[C@H](C2CCCC2)N(C)C(=O)C2(CCCC2)NC(=O)[C@@H]2CCCN2C(=O)[C@H](CCc2cc(F)c(C(F)(F)F)c(F)c2)NC(=O)CN(C)C(=O)[C@@H]1Cc1ccc(C(F)(F)F)cc1 [PP0788] ([NMeL]I[Sar][Sar][NPrPhe(4-CF3)][Sar][hPhe(3,5-F2-4-CF3)]P[Ac5c][NMeGly(cPent)][NMeD]-NMe2; lactam N-11) and report it.
[reply] 10.27

[ask] Find the recorded pKd belonging to CC[C@H](C)[C@@H]1NC(=O)[C@H](CC(C)C)N(C)C(=O)C[C@@H](C(=O)N(C)C)N(C)C(=O)[C@H](C2CCCC2)N(C)C(=O)C2(CCC2)NC(=O)[C@@H]2CC(F)(F)CN2C(=O)[C@H](CCc2cc(F)c(C(F)(F)F)c(F)c2)NC(=O)CN(C)C(=O)[C@H](Cc2ccc(C(F)(F)F)cc2)N2CCCC[C@@H](C2=O)N(C)C(=O)CN(C)C1=O and report it.
[reply] 10.72
